Provide the recorded Relative TGF-β activity, fold change compared with vehicle for the entries that follow.
- Tested on: TGF-β signaling (SBE-SEAP reporter) in MFB-F11 cells
- Assay type: cell-based, mouse
- Measurement Setup: 10 μM; cell reporter assay
Numbers only, in fold.

Observe how each entry below is paired with its result.
Molecule | Value Measured
COCCCN(CC(=O)N(CCc1c[nH]c2ccccc12)Cc1ccc(F)cc1)C(=O)c1ccccc1Cl | 3.7
COCCN(CC(=O)N(CCc1c[nH]c2ccccc12)Cc1ccc(F)cc1)C(=O)c1ccc(Cl)c([N+](=O)[O-])c1 | 1.2
COCCCN(CC(=O)N(CCc1c[nH]c2ccccc12)Cc1ccc(C(F)(F)F)cc1)C(=O)C1CC1c1ccccc1 (stereo not drawn) | 1.5
COCCCN(CC(=O)N(CCc1c[nH]c2ccccc12)Cc1ccc(F)cc1)C(=O)c1ccc(C(F)(F)F)cc1 | 4.7
CC(C)N(CC(=O)N(CCc1c[nH]c2ccccc12)Cc1ccc(Cl)c(Cl)c1)C(=O)CC(C)(C)C | 1.0

Turning now to a further record.
Find the recorded Relative TGF-β activity, fold change compared with vehicle belonging to Cc1ccc(C(=O)N(CC(=O)N(CCc2c[nH]c3ccccc23)Cc2ccc(C(F)(F)F)cc2)C(C)C)cc1[N+](=O)[O-] and report it.
1.6

====

- System: TGF-β signaling (SBE-SEAP reporter) in MFB-F11 cells
- Type: cell-based, mouse
- Measurement Setup: 30 μM; cell reporter assay
Provide the recorded Relative TGF-β activity, fold change compared with vehicle for the entries that follow.
A complete answer gives the number followed by the unit.

Observe how each entry below is paired with its result.
Smiles Entry | Value Measured
COCCN(CC(=O)N(CCc1c[nH]c2ccccc12)Cc1ccc(OC)c(OC)c1)C(=O)C(Cl)Cl | 1.5 fold
CC(C)CN(CC(=O)N(CCc1c[nH]c2ccccc12)Cc1ccccc1)C(=O)c1ccco1 | 17.6 fold
COCCCN(CC(=O)N(CCc1c[nH]c2ccccc12)Cc1ccc(F)cc1)C(=O)c1ccc(C(F)(F)F)cc1 | 8.6 fold
CC(C)N(CC(=O)N(CCc1c[nH]c2ccccc12)Cc1ccc(Cl)c(Cl)c1)C(=O)CC(C)(C)C | 1.4 fold
COCCN(CC(=O)N(CCc1c[nH]c2ccccc12)Cc1ccccc1)C(=O)Cc1cccs1 | 5.2 fold
COCCCN(CC(=O)N(CCc1c[nH]c2ccccc12)Cc1ccc(F)cc1)C(=O)c1ccccc1Cl | 8.3 fold

Turning now to a further record.
Which Relative TGF-β activity, fold change compared with vehicle is reported with TGF-β signaling (SBE-SEAP reporter) in MFB-F11 cells for this entry: CCOC(=O)CCC(=O)N(CC(=O)N(CCc1c[nH]c2ccccc12)Cc1ccc(N(C)C)cc1)C(C)C ?
1.7 fold

Provenance of the data: patent US8410138B2
